# Test system: LOX IMVI
# Assay Info: NCI tumour cell line growth inhibition, 48 h
Active and inactive are the calls of the source. No stated cut-off is given here; in the data, active = GI50 up to about 1.1 µM and inactive = higher.
Measured GI50, listed per entry for reference.
Recorded Endpoint: GI50

>>> obs_value("Cc1sccc1C(=S)Nc1ccc(Cl)c(/C=N/OC(C)(C)C)c1")
"26.6 µM (inactive)"
>>> obs_value("CCOP(=O)(OCC)C(C)(CC)NC (stereo unspecified)")
"> 100 µM (inactive)"
>>> obs_value("CCOC(=O)Nc1c(C#N)[n+]([O-])c2cc(Cl)c(Cl)cc2[n+]1[O-]")
"6.1 µM (inactive)"
>>> obs_value("Cc1ccc2c3c(cnc2n1)C(=O)OCCN3C")
"> 100 µM (inactive)"
>>> obs_value("CN(C)CCCN1C(=S)N(CCCN(C)C)c2c3cc(O)ccc3nc3c([N+](=O)[O-])ccc1c23")
"1.26 µM (inactive)"
>>> obs_value("Nc1nc(Nc2ccccc2)sc1C(=O)c1ccco1")
"15.9 µM (inactive)"
>>> obs_value("C#CCN(N=O)C(=O)NCCCCC(NC(C)=O)C(=O)NCc1ccccc1 (stereo unspecified)")
"> 100 µM (inactive)"
>>> obs_value("CN(C)c1ccc(/C=C(\\NC(=O)c2ccccc2)c2nc3ccccc3c(=O)o2)cc1")
"> 100 µM (inactive)"
>>> obs_value("CCCCC(/C=N/NC(=N)N)CC.Cc1cc(O)c(C(C)C)cc1S(=O)(=O)O")
"57.1 µM (inactive)"
>>> obs_value("COC1(OC)CC2OC1C1N=NN(C(=O)OC(C)(C)C)C21 (stereo unspecified)")
"> 100 µM (inactive)"
>>> obs_value("Cn1c(=O)c(C(c2ccccc2)c2c(O)c3ccccc3n(C)c2=O)c(O)c2ccccc21")
"> 100 µM (inactive)"
>>> obs_value("O=C1C=Cc2c(-c3ccccc3)oc3cccc1c23")
"11.2 µM (inactive)"
>>> obs_value("CC(=O)Nc1ccc(/C=c2\\sc3nnc(/C=C/c4ccccc4)n3c2=O)cc1")
"> 50 µM (inactive)"
>>> obs_value("O=[N+]([O-])c1ccc2occ3c2c1CCC3")
"> 100 µM (inactive)"
>>> obs_value("COc1cc(C2OC[C@@H]3C(=O)OC[C@H]23)cc(O)c1OC (stereo partly specified)")
"> 100 µM (inactive)"
>>> obs_value("C/C=C/COC(=O)CO[N+](=O)[O-]")
"> 100 µM (inactive)"
>>> obs_value("O=[N+]([O-])c1nccn1CCCNc1c2ccccc2[n+]([O-])c2ccccc12")
"> 100 µM (inactive)"
>>> obs_value("O=C1CC2CC3OC3[C@H]3c4cc5c(cc4C(=O)N1C23)OCO5 (stereo partly specified)")
"> 100 µM (inactive)"
>>> obs_value("C[C@H](CCC1=NCCN1)[C@H]1CC[C@H]2[C@@H]3CC[C@@H]4C[C@H](O)CC[C@]4(C)[C@H]3C[C@H](O)[C@]12C")
"11.2 µM (inactive)"
>>> obs_value("C[n+]1cc2cc(O)c(O)cc2c2ccc3cc(O)c(O)cc3c21.c1ccncc1")
"2.61 µM (inactive)"
>>> obs_value("COc1c(OC)c(OC)c2c(=O)c(OC)c(-c3ccc4c(c3)OCO4)oc2c1OC")
"> 100 µM (inactive)"

* * *

# Test system: XF498
# Assay Info: NCI tumour cell line growth inhibition, 48 h
Counter-ions that a name gives are not always drawn. The source made the active and inactive calls. No stated cut-off is given here; in the data, active = GI50 up to about 1.1 µM and inactive = higher.
Possible outcomes: t for active, f for inactive

>>> label_value("CN(C)CCNc1nc(-c2cccs2)cc(-c2cccs2)n1")
"f"
>>> label_value("COc1cccc2c1C(=O)c1c(O)c3c(c(O)c1C2=O)C[C@@](O)(C(=O)CO)C[C@@H]3OC1CC(N(C)C)C(O)C(C)O1 (stereo partly specified)")
"t"
>>> label_value("CCn1c2ccccc2c2ccc3c(c21)C(=O)c1ccccc1C3=O")
"f"
>>> label_value("O=C(Cc1nc2ccccc2s1)C(=O)Nc1ccccc1C(F)(F)F")
"f"
>>> label_value("Cc1cn(C2C=CC(=O)C(C)O2)c(=O)[nH]c1=O (stereo unspecified)")
"f"
>>> label_value("NC(=O)NCc1c(C(N)=O)ncn1Cc1ccccc1")
"f"
>>> label_value("CC(=O)OCC(=O)[C@@]12OC(C)(C)O[C@@H]1C[C@H]1[C@@H]3CC(C=O)=C4C=C(OCCCl)CC[C@]4(C)[C@@]3(F)[C@@H](O)C[C@@]12C")
"f"
>>> label_value("CC(=O)OC1C/C(C)=C/CCC(C)/C=C/C2(C)CCC(C(C)(C)O)C12 (stereo unspecified)")
"f"
>>> label_value("N#CCc1c(-c2ccccc2)n(S(=O)(=O)c2ccccc2)c2ccccc12")
"f"
>>> label_value("CCOC(=N)CC(=O)Nc1ccccc1")
"f"
>>> label_value("CCCCc1oc2ccccc2c1C(=O)c1cc(I)c(OCCN(CC)CC)c(I)c1 [AMIODARONE HYDROCHLORIDE]")
"f"
>>> label_value("O=C(O)C[C@H]1CCCCC12CCOC2=O (stereo partly specified)")
"f"
>>> label_value("C1CCN(c2nc(=[N+]3CCCCC3)ss2)CC1")
"f"
>>> label_value("N/C(=N\\O)N/N=C/c1cccc(F)c1")
"f"
>>> label_value("COC(=O)CC1CC2(C(=O)OC)c3[nH]c4ccccc4c3CCN2C1=O (stereo unspecified)")
"f"
>>> label_value("CCCCCCCCOC(=O)c1cc([N+](=O)[O-])c(Sc2[nH]cnc3ncnc2-3)c([N+](=O)[O-])c1")
"t"
